molecular target: Serine/threonine-protein kinase Sgk1 (Homo sapiens) (UniProt O00141); conditions: at 10 µM
Sequence (O00141 whole entry): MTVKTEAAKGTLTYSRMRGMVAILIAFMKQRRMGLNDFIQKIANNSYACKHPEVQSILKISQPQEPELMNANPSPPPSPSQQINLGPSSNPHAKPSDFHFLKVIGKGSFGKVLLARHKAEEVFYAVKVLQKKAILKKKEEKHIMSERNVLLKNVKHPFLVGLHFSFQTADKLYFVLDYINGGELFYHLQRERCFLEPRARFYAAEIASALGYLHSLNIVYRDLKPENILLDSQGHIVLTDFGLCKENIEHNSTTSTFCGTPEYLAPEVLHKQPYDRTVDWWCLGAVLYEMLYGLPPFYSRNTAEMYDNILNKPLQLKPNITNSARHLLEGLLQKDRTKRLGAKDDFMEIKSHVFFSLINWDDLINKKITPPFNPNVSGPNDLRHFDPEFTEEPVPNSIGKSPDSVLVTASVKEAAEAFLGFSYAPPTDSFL
Listing: residual activity of selected molecules
Unit % implied. Number only.

-- ask Quick one: residual activity for COc1cc2ncnc(Nc3cccc(Cl)c3)c2cc1OC ?
-- reply 113

-- ask I am curious: what residual activity value has been reported for CC(C)(C)c1nc2c3ccc(F)cc3c3c(=O)[nH]ccc3c2[nH]1 ?
-- reply 68

-- ask Given the molecule O=c1cc(N2CCOCC2)oc2c1ccc1ccccc12 , what is its reported residual activity?
-- reply 97

-- ask I'd like to know its residual activity. The molecule in question is NC(=O)c1ccc(-c2nc(-c3ccc4c(c3)OCCO4)c(-c3ccccn3)[nH]2)cc1
-- reply 90

-- ask // query residual activity value for entry O=C(O)/C=C/c1cc(Br)c(Br)c(Br)c1Br
-- reply 49

-- ask Which residual activity is reported for this molecule? O=C(c1ccccc1)c1ccc(N2CCOCC2)cc1O
-- reply 95

-- ask GET /values?readout=residual activity&item= CCOc1nc(NC(=O)Cc2cc(OC)ccc2OC)cc(N)c1C#N
-- reply 100

-- ask Quick one: residual activity of O=C1NC(=O)c2c1c1c3ccccc3[nH]c1n1cncc21 ?
-- reply 47

* * *

biological target: Homeodomain-interacting protein kinase 2 (Homo sapiens); conditions: at 1 µM
Below: a set of entries, each annotated with reported residual activity.
Field format: number, assumed %, no unit text.

Please review the entries below; each comes with its answer.
{"compound": "CC(C)[C@H](CO)Nc1nc(Nc2cc(N)cc(Cl)c2)c2ncn(C(C)C)c2n1", "reported_measurement": 86}
{"compound": "O=C(NC(NC(=S)Nc1ccc(F)c([N+](=O)[O-])c1)C(Cl)(Cl)Cl)C(c1ccccc1)c1ccccc1 (stereo unspecified)", "reported_measurement": 104}
{"compound": "COc1ccc(Cl)cc1NC(=O)Nc1cc(C)nc2ccccc12", "reported_measurement": 98}

-- ask What does the record list as residual activity for O=C(c1cc2cc(O)ccc2[nH]1)c1cc2cc(O)ccc2[nH]1 ?
-- reply 83

-- ask Any idea what its residual activity is? The compound is CCN(CC)CCNC(=O)c1c(C)[nH]c(/C=C2\C(=O)Nc3ccc(Cl)cc32)c1C
-- reply 6

* * *

target: Tyrosine-protein kinase HCK (Homo sapiens) (UniProt P08631); settings: at 1 µM
Sequence (P08631 2-526 limits assumed): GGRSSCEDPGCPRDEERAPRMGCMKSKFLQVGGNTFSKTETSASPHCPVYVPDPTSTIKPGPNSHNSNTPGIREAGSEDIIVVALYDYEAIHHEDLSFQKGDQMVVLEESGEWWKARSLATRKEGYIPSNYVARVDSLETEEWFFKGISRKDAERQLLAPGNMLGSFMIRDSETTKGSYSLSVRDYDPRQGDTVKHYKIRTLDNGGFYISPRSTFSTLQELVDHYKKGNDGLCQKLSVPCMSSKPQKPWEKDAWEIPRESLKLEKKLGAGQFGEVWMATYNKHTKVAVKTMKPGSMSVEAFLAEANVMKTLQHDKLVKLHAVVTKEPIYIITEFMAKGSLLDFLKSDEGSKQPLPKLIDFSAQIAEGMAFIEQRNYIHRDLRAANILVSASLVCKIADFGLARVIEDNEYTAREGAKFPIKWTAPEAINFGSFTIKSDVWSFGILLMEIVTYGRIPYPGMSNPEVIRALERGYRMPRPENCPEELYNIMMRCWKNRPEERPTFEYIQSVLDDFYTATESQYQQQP
Please mark criterion met if the recorded residual activity is equal to or greater than 60%, and criterion not met if it falls below.

{"input_smiles": "CC(C)c1nn(-c2c(Cl)cccc2Cl)c2nc(Cc3ccc(OCCO)cc3)[nH]c(=O)c12", "assigned_class": "criterion met"}
{"input_smiles": "CC(C)(C)c1nc2c3ccc(F)cc3c3c(=O)[nH]ccc3c2[nH]1", "assigned_class": "criterion met"}

-- ask Does the compound Cn1sc(=O)n(Cc2ccccc2)c1=O have recorded residual activity that is 60% or more?
-- reply criterion met

-- ask Dear colleague, could you confirm whether N#C/C(=C\c1ccc(O)c(O)c1)C(=O)NCc1ccccc1 has residual activity at or above 60%?
-- reply criterion met

-- ask Hello, I need to know if O=c1cc(N2CCOCC2)oc2c1ccc1ccccc12 has measured residual activity not below 60%. Thanks!
-- reply criterion met

-- ask Tell me whether residual activity is at least 60% here: O=C1C(Cl)=C(N2C(=O)CCC2=O)C(=O)c2ccccc21
-- reply criterion met

-- ask Please tell me: is the compound CC(C)(C)n1nc(Cc2cccc3ccccc23)c2c(N)ncnc21 at or over 60% in terms of residual activity?
-- reply criterion not met

-- ask Confirm if residual activity reported for the compound CCCCc1c(-c2ccc(O)cc2)[nH]c2nccnc12 is 60% or above.
-- reply criterion met

-- ask I'd appreciate it if you could say whether Nc1ncnc2[nH]nc(Nc3ccc(F)cc3)c12 has residual activity at least equal to 60%.
-- reply criterion not met

-- ask Assess whether reported residual activity for COc1ccc2c(c1)c(C1=C(c3c[nH]c4ccccc34)C(=O)NC1=O)cn2CCCN(C)C sits at 60% or higher.
-- reply criterion met

-- ask residual activity >= 60% for CCOC(=O)c1c(C)[nH]c(/C=C2\C(=O)Nc3ccccc32)c1C ?
-- reply criterion met

* * *

molecular target: Serine/threonine-protein kinase PAK 6 (Homo sapiens) (UniProt Q9NQU5); conditions: at 10 µM
Sequence (Q9NQU5 whole entry, looked up): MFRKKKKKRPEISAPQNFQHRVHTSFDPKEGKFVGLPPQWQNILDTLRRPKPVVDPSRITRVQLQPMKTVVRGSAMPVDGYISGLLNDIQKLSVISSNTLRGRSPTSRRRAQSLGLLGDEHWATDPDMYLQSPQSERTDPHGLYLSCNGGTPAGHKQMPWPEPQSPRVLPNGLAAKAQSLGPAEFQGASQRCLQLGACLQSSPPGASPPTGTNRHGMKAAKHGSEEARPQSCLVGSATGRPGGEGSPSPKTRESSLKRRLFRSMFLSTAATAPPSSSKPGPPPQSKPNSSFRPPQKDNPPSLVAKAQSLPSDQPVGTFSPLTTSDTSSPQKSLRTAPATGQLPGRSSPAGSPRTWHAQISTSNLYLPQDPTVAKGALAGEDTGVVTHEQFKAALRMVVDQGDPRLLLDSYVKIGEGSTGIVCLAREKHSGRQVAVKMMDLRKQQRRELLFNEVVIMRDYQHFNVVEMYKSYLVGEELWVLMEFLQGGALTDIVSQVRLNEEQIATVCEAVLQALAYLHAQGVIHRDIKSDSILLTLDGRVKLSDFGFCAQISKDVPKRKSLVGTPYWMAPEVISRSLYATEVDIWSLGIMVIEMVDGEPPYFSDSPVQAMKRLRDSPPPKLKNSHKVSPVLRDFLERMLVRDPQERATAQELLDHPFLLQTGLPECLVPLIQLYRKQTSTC
observable: residual activity (%)
API: value field is a number in %; no unit string.

Consider the reported residual activity for these molecules:
{"input_smiles": "Nc1ncnc2[nH]nc(Nc3ccc(F)cc3)c12", "reported_measurement": 81}
{"input_smiles": "CCN(CC)CCNC(=O)c1c(C)[nH]c(/C=C2\\C(=O)Nc3ccc(Cl)cc32)c1C", "reported_measurement": 28}
{"input_smiles": "CCOC(=O)c1c(C)[nH]c(/C=C2\\C(=O)Nc3ccccc32)c1C", "reported_measurement": 99}
{"input_smiles": "CCCCc1c(-c2ccc(OC)cc2)[nH]c2nccnc12", "reported_measurement": 60}
{"input_smiles": "Nc1nc(Nc2ccc(S(N)(=O)=O)cc2)nn1C(=O)c1c(F)cccc1F", "reported_measurement": 34}
{"input_smiles": "O=C1Cc2c([nH]c3ccc([N+](=O)[O-])cc23)-c2ccccc2N1", "reported_measurement": 41}
{"input_smiles": "CCOc1nc(NC(=O)Cc2cc(OC)ccc2OC)cc(N)c1C#N", "reported_measurement": 77}
{"input_smiles": "Nc1ncnc2c1cnn2-c1ccccc1", "reported_measurement": 86}

-- ask I'd like to know its residual activity. The molecule in question is N#Cc1c(NC(=O)c2cccc3ccccc23)sc2c1CCCC2
-- reply 66

-- ask Sample COc1ccc(Cl)cc1NC(=O)Nc1cc(C)nc2ccccc12 — what was its residual activity?
-- reply 88

-- ask Any idea what its residual activity is? The molecule is CN([C@@H](Cc1ccc(OS(=O)(=O)c2cccc3cnccc23)cc1)C(=O)N1CCN(c2ccccc2)CC1)S(=O)(=O)c1cccc2cnccc12
-- reply 50

-- ask Item under review: Nc1ncnc2c1c(-c1ccc(Oc3ccccc3)cc1)cn2C1CCCC1 . Reported residual activity?
-- reply 63

-- ask Consider the molecule shown here: CCCC(=O)Oc1ccc2[nH]c(C(=O)c3cc4ccccc4[nH]3)cc2c1 What is its recorded residual activity?
-- reply 75

-- ask Form field: reported residual activity of NCCNc1ncc(C(N)=O)c(Nc2cccc(C(F)(F)F)c2)n1
-- reply 18

-- ask Which measured residual activity value corresponds to O=C1C(Cl)=C(N2C(=O)CCC2=O)C(=O)c2ccccc21 ?
-- reply 93

-- ask For the molecule shown here, O=C(O)/C=C/c1cc(Br)c(Br)c(Br)c1Br , give the reported residual activity.
-- reply 76

-- ask I would be grateful if you could share the reported residual activity for Oc1cccc(-c2nc(N3CCOCC3)c3oc4ncccc4c3n2)c1 .
-- reply 78

-- ask # query: residual activity of entry Cn1sc(=O)n(Cc2ccccc2)c1=O
-- reply 94

-- ask // query residual activity value for entry Cc1cc(C)c(/C=C2\C(=O)Nc3ccccc32)[nH]1
-- reply 62

-- ask Look at this molecule and give its reported residual activity. CC(C)c1nn(-c2c(Cl)cccc2Cl)c2nc(Cc3ccc(OCCO)cc3)[nH]c(=O)c12
-- reply 51

-- ask Form field: reported residual activity of O=C1Nc2ccccc2/C1=C\c1c(Cl)[nH]c2ccccc12
-- reply 85

-- ask Using the record for O=C(c1cc2cc(O)ccc2[nH]1)c1cc2cc(O)ccc2[nH]1 , report its residual activity.
-- reply 52

-- ask residual activity for CC(C)[C@H](CO)Nc1nc(Nc2cc(N)cc(Cl)c2)c2ncn(C(C)C)c2n1 ?
-- reply 5

* * *

molecular target: Myosin light chain kinase, smooth muscle (Homo sapiens) (UniProt Q15746); conditions: at 10 µM
Sequence (Q15746 whole entry): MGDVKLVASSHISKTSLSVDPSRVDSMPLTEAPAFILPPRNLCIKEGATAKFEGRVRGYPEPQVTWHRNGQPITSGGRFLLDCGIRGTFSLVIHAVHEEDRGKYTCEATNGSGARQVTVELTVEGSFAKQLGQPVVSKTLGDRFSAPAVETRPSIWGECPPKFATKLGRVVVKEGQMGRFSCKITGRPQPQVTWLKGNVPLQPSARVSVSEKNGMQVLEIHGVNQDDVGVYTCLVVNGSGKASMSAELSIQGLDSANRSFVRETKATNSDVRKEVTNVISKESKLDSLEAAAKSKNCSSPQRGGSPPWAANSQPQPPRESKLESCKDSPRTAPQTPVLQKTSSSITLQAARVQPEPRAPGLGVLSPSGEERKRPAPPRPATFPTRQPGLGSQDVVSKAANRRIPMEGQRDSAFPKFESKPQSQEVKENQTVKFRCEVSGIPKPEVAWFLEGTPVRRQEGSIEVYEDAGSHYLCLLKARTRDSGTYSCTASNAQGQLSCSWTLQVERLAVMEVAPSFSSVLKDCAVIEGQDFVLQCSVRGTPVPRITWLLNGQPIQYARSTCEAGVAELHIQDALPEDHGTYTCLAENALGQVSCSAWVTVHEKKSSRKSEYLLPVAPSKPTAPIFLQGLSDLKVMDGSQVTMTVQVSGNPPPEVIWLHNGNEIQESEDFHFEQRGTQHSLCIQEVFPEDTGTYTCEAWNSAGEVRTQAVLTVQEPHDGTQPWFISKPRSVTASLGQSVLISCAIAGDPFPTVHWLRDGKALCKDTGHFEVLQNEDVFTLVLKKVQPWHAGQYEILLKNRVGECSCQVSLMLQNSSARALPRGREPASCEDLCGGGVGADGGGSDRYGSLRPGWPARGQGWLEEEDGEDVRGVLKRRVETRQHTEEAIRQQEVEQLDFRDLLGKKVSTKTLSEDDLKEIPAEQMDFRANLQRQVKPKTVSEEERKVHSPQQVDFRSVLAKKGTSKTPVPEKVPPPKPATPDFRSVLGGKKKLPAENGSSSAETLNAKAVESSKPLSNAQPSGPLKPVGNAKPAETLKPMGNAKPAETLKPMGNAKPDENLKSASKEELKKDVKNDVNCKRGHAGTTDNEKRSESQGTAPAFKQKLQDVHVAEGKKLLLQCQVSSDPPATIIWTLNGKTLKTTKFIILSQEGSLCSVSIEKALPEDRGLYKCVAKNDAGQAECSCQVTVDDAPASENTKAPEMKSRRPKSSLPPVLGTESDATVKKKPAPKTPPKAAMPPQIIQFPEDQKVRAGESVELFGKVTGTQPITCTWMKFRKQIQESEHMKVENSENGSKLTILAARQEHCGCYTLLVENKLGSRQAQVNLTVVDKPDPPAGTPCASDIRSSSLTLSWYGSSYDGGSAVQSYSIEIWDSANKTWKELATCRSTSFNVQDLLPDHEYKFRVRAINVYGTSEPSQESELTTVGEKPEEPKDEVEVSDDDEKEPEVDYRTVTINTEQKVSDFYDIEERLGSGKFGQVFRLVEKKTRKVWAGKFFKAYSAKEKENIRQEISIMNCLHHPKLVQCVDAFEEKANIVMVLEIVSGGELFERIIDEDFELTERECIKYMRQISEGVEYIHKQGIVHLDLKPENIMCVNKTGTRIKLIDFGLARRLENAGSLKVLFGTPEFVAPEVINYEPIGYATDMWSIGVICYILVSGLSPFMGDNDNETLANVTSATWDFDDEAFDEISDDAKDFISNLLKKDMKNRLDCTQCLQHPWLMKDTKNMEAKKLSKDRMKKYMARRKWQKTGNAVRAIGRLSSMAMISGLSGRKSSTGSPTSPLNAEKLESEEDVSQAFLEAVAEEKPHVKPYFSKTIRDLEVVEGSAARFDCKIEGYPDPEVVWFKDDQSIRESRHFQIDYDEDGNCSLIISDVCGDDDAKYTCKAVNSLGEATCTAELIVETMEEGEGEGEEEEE
Friendly reminder: residual activity below 80% is True, at or above is False.

Some solved cases for reference:
{"molecule": "Cn1c2ccccc2c2c3c(c4c5ccccc5n(CCC#N)c4c21)CNC3=O", "assigned_class": "True"}
{"molecule": "N#Cc1c(NC(=O)c2cccc3ccccc23)sc2c1CCCC2", "assigned_class": "False"}
{"molecule": "COc1ccc2c(c1)c(C1=C(c3c[nH]c4ccccc34)C(=O)NC1=O)cn2CCCN(C)C", "assigned_class": "True"}
{"molecule": "CCCCc1c(-c2ccc(O)cc2)[nH]c2nccnc12", "assigned_class": "False"}
{"molecule": "CSc1nc(-c2ccc(F)cc2)c(-c2ccnc(NC(C)c3ccccc3)c2)[nH]1 (stereo not given)", "assigned_class": "True"}

-- ask Is the reported residual activity for CC(C)(C)n1nc(Cc2cccc3ccccc23)c2c(N)ncnc21 strictly below 80%?
-- reply False

-- ask Is 80% strictly greater than the molecule's reported residual activity? molecule: N#C/C(=C\c1ccc(O)c(O)c1)C(=O)NCc1ccccc1
-- reply False

-- ask Hi there! Is residual activity for O=C1NC(=O)c2c1c1c3ccccc3[nH]c1n1cncc21 below 80%, do you know?
-- reply True
